The measurements presented in this section are drawn from ChEMBL document CHEMBL3425449.

Target: Orexin receptor type 2 (Homo sapiens, UniProt O43614)
Sequence (O43614 whole entry): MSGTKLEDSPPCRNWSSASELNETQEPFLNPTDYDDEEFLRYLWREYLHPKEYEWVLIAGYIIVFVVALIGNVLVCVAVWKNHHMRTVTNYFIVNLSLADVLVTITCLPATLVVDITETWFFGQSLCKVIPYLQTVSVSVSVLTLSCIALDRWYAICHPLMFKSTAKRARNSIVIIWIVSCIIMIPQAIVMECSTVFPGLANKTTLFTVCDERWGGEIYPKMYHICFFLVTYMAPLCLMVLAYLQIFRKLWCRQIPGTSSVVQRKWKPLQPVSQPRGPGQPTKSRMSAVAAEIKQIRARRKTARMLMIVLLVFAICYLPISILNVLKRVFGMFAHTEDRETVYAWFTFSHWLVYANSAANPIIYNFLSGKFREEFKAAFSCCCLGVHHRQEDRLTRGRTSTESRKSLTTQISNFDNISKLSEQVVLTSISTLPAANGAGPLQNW
Exercise: for every item that follows, state its recorded pKi.
Give bare numbers, as −log10 of the molar value.

Cc1ccc(O[C@@H]2CC[C@@H](C)N(C(=O)c3ccccc3-n3nccn3)C2)nc1 = 8.59

Required: pKi, one value per compound below.
1. COC(=O)c1ccnc(O[C@@H]2CC[C@@H](C)N(C(=O)c3ccccc3-n3nccn3)C2)c1
2. C[C@@H]1CC[C@@H](Oc2cc(Cl)ccn2)CN1C(=O)c1ccccc1-n1nccn1
3. C[C@@H]1CC[C@@H](Oc2ccccn2)CN1C(=O)c1ccccc1-n1nccn1

1. 8.41
2. 8.85
3. 5.62

Field: pKi. Fill in for each record below.
1. C[C@@H]1CC[C@@H](Oc2cc(C(F)(F)F)ccn2)CN1C(=O)c1ccccc1-n1nccn1
2. C[C@@H]1CC[C@@H](Oc2cc(I)ccn2)CN1C(=O)c1ccccc1-n1nccn1
3. C[C@@H]1CC[C@@H](Oc2cc(N(C)C)ccn2)CN1C(=O)c1ccccc1-n1nccn1
4. C[C@@H]1CC[C@@H](Oc2cc(F)ccn2)CN1C(=O)c1ccccc1-n1nccn1

[9.70, 9.40, 8.35, 8.41]

Fill blank: measured pKi of the compound CCc1ccnc(O[C@@H]2CC[C@@H](C)N(C(=O)c3ccccc3-n3nccn3)C2)c1 is ____.
9.22

* * *

Assay: Lipophilicity, log D of the compound by HPLC method
Assay type: physicochemical
Details: read-out: logD
Please respond with reported logD for every item in the list.
Give bare numbers.

Sample records with logD:
C[C@@H]1CC[C@@H](Oc2cc(C#N)ccn2)CN1C(=O)c1ccccc1CC(F)(F)F = 3.6
C[C@@H]1CC[C@@H](Oc2cc(C#N)ccn2)CN1C(=O)c1ccccc1-n1nccn1 = 3
CCOC(=O)c1ccccc1C(=O)N1C[C@H](Oc2cc(C#N)ccn2)CC[C@H]1C = 3.2

Take each entry in turn and give its logD.
1. CC(C)OC(=O)c1ccccc1C(=O)N1C[C@H](Oc2cc(C#N)ccn2)CC[C@H]1C
2. COC(=O)c1ccccc1C(=O)N1C[C@H](Oc2cc(C#N)ccn2)CC[C@H]1C
3. C[C@@H]1CC[C@@H](Oc2cc(C#N)ccn2)CN1C(=O)c1ccccc1-c1ncccn1
4. Cc1nc(-c2ccccc2C(=O)N2C[C@H](Oc3cc(C#N)ccn3)CC[C@H]2C)no1

1: 3.6; 2: 2.9; 3: 2.9; 4: 3

* * *

Assay: Oral bioavailability in Wistar Han rat at 10 mg/kg
Format: ADME, organism-based
Details: in vivo
recordedEndpoint: bioavailability (%)
One number for each entry, in %.

The examples below pair each entry with its known result.
C[C@@H]1CC[C@@H](Oc2cc(C#N)ccn2)CN1C(=O)c1ccccc1-n1nccn1 = 17
C[C@@H]1CC[C@@H](Oc2cc(C#N)ccn2)CN1C(=O)c1ccccc1-c1ncccn1 = 80

From here, focus on the item given below.
Any idea what bioavailability was measured for Cc1nc(-c2ccccc2C(=O)N2C[C@H](Oc3cc(C#N)ccn3)CC[C@H]2C)no1 ?
26

* * *

Assay: Volume of distribution at steady state in dog at 10 mg/kg, po or 2 mg/kg, iv
Format: ADME, organism-based, Canis lupus familiaris
Details: in vivo, read-out: Vdss
What Vd was measured for each of the following?
Give bare numbers, in L/kg.

C[C@@H]1CC[C@@H](Oc2cc(C#N)ccn2)CN1C(=O)c1ccccc1-c1ncccn1 = 0.97
Cc1nc(-c2ccccc2C(=O)N2C[C@H](Oc3cc(C#N)ccn3)CC[C@H]2C)no1 = 0.54

With those in mind, consider the next molecule.
Need Vd of C[C@@H]1CC[C@@H](Oc2cc(C#N)ccn2)CN1C(=O)c1ccccc1-n1nccn1 , thanks.
1.5

* * *

Target: Orexin receptor type 2 (Homo sapiens)
Test: Antagonist activity against human OX2R expressed in CHOK1 cells assessed as inhibition of orexin A-induced […] Ca2+ mobilization by FLIPR assay
recordedEndpoint: IC50 (nM)
Answers are plain numbers, in nM.

Some molecules with known IC50 results, for comparison:
CCOC(=O)c1ccccc1C(=O)N1C[C@H](Oc2cc(C#N)ccn2)CC[C@H]1C = 21
Cc1ccc(O[C@@H]2CC[C@@H](C)N(C(=O)c3ccccc3-n3nccn3)C2)nc1 = 9
C[C@@H]1CC[C@@H](Oc2cc(I)ccn2)CN1C(=O)c1ccccc1-n1nccn1 = 7.2
COC(=O)c1ccccc1C(=O)N1C[C@H](Oc2cc(C#N)ccn2)CC[C@H]1C = 21
C[C@@H]1CC[C@@H](Oc2cc(C(=O)N(C)C)ccn2)CN1C(=O)c1ccccc1-n1nccn1 = 95
C[C@@H]1CC[C@@H](Oc2cc(Br)ccn2)CN1C(=O)c1ccccc1-n1nccn1 = 10
C[C@@H]1CC[C@@H](Oc2cc(C#N)ccn2)CN1C(=O)c1ccccc1CC(F)(F)F = 32
C[C@@H]1CC[C@@H](Oc2cc(C#N)ccn2)CN1C(=O)c1ccccc1OC(F)F = 37
Cc1nc(-c2ccccc2C(=O)N2C[C@H](Oc3cc(C#N)ccn3)CC[C@H]2C)no1 = 25
COC(=O)c1ccnc(O[C@@H]2CC[C@@H](C)N(C(=O)c3ccccc3-n3nccn3)C2)c1 = 22

Please look at the items below and tell me IC50 for each one, in order.
1. C[C@@H]1CC[C@@H](Oc2cc(Cl)ccn2)CN1C(=O)c1ccccc1-n1nccn1
2. C[C@@H]1CC[C@@H](Oc2cc(-c3ccccc3)ccn2)CN1C(=O)c1ccccc1-n1nccn1
3. C[C@@H]1CC[C@@H](Oc2cc(C#N)ccn2)CN1C(=O)c1ccccc1-n1nccn1
4. C[C@@H]1CC[C@@H](Oc2cc(N(C)C)ccn2)CN1C(=O)c1ccccc1-n1nccn1

1: 11; 2: 45; 3: 13; 4: 130

Report IC50 for each item below.
1. CSc1ccnc(O[C@@H]2CC[C@@H](C)N(C(=O)c3ccccc3-n3nccn3)C2)c1
2. CCc1ccnc(O[C@@H]2CC[C@@H](C)N(C(=O)c3ccccc3-n3nccn3)C2)c1
3. CC(C)OC(=O)c1ccccc1C(=O)N1C[C@H](Oc2cc(C#N)ccn2)CC[C@H]1C
4. Cc1cccc(O[C@@H]2CC[C@@H](C)N(C(=O)c3ccccc3-n3nccn3)C2)n1
5. C[C@@H]1CC[C@@H](Oc2cc(S(C)(=O)=O)ccn2)CN1C(=O)c1ccccc1-n1nccn1

1: 6.7; 2: 11; 3: 38; 4: 33; 5: 16

Recorded IC50 for C#Cc1ccnc(O[C@@H]2CC[C@@H](C)N(C(=O)c3ccccc3-n3nccn3)C2)c1 , please?
10

* * *

Assay: Clearance in Wistar Han rat at 10 mg/kg, po or 2 mg/kg, iv
Type: ADME, organism-based
Details: in vivo
Provide the reported clearance of each item.
Give bare numbers, in mL/min/kg.

Cc1nc(-c2ccccc2C(=O)N2C[C@H](Oc3cc(C#N)ccn3)CC[C@H]2C)no1 = 30
C[C@@H]1CC[C@@H](Oc2cc(C#N)ccn2)CN1C(=O)c1ccccc1-c1ncccn1 = 37

Next molecule, clearance to be filled in.
# input molecule: C[C@@H]1CC[C@@H](Oc2cc(C#N)ccn2)CN1C(=O)c1ccccc1-n1nccn1 ; wanted: its clearance
18

* * *

I'd appreciate it if you could supply Vd values for the items below.
Experiment: Volume of distribution at steady state in Wistar Han rat at 10 mg/kg, po or 2 mg/kg, iv
Format: ADME, organism-based
Conditions: in vivo, read-out: Vdss

// worked examples, Vd included
C[C@@H]1CC[C@@H](Oc2cc(C#N)ccn2)CN1C(=O)c1ccccc1-c1ncccn1 = 1.3 L/kg
C[C@@H]1CC[C@@H](Oc2cc(C#N)ccn2)CN1C(=O)c1ccccc1-n1nccn1 = 1.7 L/kg

Proceed to the following item.
Consider the compound shown here: Cc1nc(-c2ccccc2C(=O)N2C[C@H](Oc3cc(C#N)ccn3)CC[C@H]2C)no1 What is its recorded Vd?
1.3 L/kg

* * *

Assay: Half life in Wistar Han rat at 10 mg/kg, po or 2 mg/kg, iv
Type: ADME, organism-based
Settings: in vivo
recordedEndpoint: half-life (h)
One number for each entry, in h.

Reference set (2 entries):
C[C@@H]1CC[C@@H](Oc2cc(C#N)ccn2)CN1C(=O)c1ccccc1-n1nccn1 = 1.7
C[C@@H]1CC[C@@H](Oc2cc(C#N)ccn2)CN1C(=O)c1ccccc1-c1ncccn1 = 4.3

Next compound, half-life to be filled in.
Look up half-life: Cc1nc(-c2ccccc2C(=O)N2C[C@H](Oc3cc(C#N)ccn3)CC[C@H]2C)no1
1.3
